B1: TRIM43 (parent)
chain: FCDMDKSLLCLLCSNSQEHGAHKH

- Variants of: B1
- ASSAY_INFO: protein stability index of a GFP-peptide fusion (GPS, HEK-293T) (PSI 1-6); higher = more stable;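 also: lentivirally expressed fusions sorted by FACS into six bins by GFP to DsRed ratio, PSI derived from sequencing read proportions per bin multiplied by bin number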
- RUN_CONDITIONS: c terminus: a fixed tail appended
# maps each entry to its protein stability index

Previously resolved entries follow.
primary_sequence="FCDMGKSLLCLLCSNSQEHGAHKH [D5G]" measured_metric="protein stability index" assay_result=2.33
primary_sequence="FCDMDKSMLCLLCSNSQEHGAHKH [L8M]" measured_metric="protein stability index" assay_result=2.31
primary_sequence="FCDMDKSLLCYLCSNSQEHGAHKH [L11Y]" measured_metric="protein stability index" assay_result=2.26
primary_sequence="FCSMDKSLLCLLCSNSQEHGAHKH [D3S]" measured_metric="protein stability index" assay_result=1.99
primary_sequence="FCDMDKSLLCMLCSNSQEHGAHKH [L11M]" measured_metric="protein stability index" assay_result=1.86

Pending variant:
Data request: Please look at this variant and report its protein stability index: FCDMDKSLLCLLCSNSWEHGAHKH [Q17W]
Data returned: 1.74

Attribution: the supplement of paper PMC10567573
